target: DCN1 (DCUND1) protein PONY domain (Homo sapiens (Human)); assay: Off-rate measurement of reversible covalent molecules (jump dilution TR-FRET with Cy5 probe); format: binding; conditions: ln(2)/K; jump dilution TR-FRET
Sequence (Q96GG9 60-248): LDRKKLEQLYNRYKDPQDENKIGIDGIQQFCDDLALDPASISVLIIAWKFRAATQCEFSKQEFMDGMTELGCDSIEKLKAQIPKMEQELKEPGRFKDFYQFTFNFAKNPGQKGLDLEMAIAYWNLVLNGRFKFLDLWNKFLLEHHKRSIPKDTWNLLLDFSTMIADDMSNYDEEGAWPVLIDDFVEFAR
Item-by-item account of half-life

[
  {
    "molecule": "CCN1C(=O)[C@@H](NC(=O)c2cccc(C(F)(F)F)c2)[C@@H](c2ccc(F)cc2)c2c(C(=O)N3CCS(=O)(=O)C[C@H]3C#N)nn(C3CCOCC3)c21 (mixture of isomers) [Compound I-436]",
    "half-life / min": 53.14
  },
  {
    "molecule": "CCN1C(=O)[C@@H](NC(=O)c2cccc(C(F)(F)F)c2)[C@@H](C2CC2)c2c(C(=O)N3CS(=O)(=O)C[C@H]3C#N)nn(C3CCOCC3)c21 [Compound I-617]",
    "half-life / min": 45.95
  },
  {
    "molecule": "CCN1C(=O)[C@@H](NC(=O)c2cccc(C(F)(F)F)c2)[C@@H](c2ccc(F)cc2)c2c(C(=O)N(C)[C@H](C#N)CCN(C)C)nn(C3CCOCC3)c21 [Compound I-370]",
    "half-life / min": 54.5
  }
]
